experiment: Clearance in Sprague-Dawley rat at 20 mg/kg, ip measured upto 1440 mins by LC-MS/MS analysis; type: ADME, organism-based; settings: in vivo
Measured attribute: CL/F (mL/min/kg)
Could you give me the number in mL/min/kg? Just the number is fine.

Task: Quick one: CL/F for "N#Cc1ccc(N2C(=O)CN(CCCN3CCCc4ccccc43)C2=S)cc1C(F)(F)F" ?
Result: 60.2

###

experiment: Half life in Sprague-Dawley rat at 20 mg/kg, po measured upto 1440 mins by LC-MS/MS analysis; format: ADME, organism-based; details: in vivo
Measured attribute: half-life (h)
Number only, in h; omit the unit.

Task: # get_value(readout='half-life', item= "N#Cc1ccc(N2C(=O)CN(CCCN3CCCc4ccccc43)C2=S)cc1C(F)(F)F" )
Result: 3.06
